Molecular target: Human TREM2 (Homo sapiens)
Construct: expressed in transfected cells
Sequence (Q9NZC2 19-230): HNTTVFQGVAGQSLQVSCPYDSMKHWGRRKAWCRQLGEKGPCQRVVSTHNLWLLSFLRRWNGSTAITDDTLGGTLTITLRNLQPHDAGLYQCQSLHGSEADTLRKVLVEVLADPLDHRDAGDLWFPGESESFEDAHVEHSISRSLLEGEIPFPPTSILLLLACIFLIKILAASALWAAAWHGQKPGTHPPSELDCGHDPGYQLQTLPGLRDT
Sequence (O43914 22-113 partner): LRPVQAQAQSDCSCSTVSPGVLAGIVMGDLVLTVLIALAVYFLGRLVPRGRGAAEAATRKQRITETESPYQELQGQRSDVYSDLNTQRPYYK
Assay: Human TREM2 activity: cellular phosphorylation of Syk (AlphaLISA SureFire Ultra p-SYK) in HEK293/DAP12+TREM2 stable cell line
Assay type: cell-based
Conditions: HEK293; maximal response relative to reference agonist example 1B (remaining examples); read-out: Emax
Recorded measurements of Emax, one per entry

Use these answered entries as a reference point.
INSERT INTO results (compound, assay_value) VALUES
  ('Cc1cc([C@H]2CN(c3cc4c(=O)n(C)c(C)nc4c(-c4ccc(C(F)(F)F)nc4)n3)CCO2)ccn1 (single isomer, unassigned) [Example 138B]', '< 75%'),
  ('Cc1nc2c(-c3ccc(C(F)(F)F)nc3)nc(N3C[C@H](c4cnn(C)c4)OC(C)(C)C3)nc2c(=O)n1C (single isomer, unassigned) [Example 102B]', '< 75%'),
  ('Cc1nc2c(-c3cc(C(F)(F)F)nn3C)nc(N3CCOC(c4cnn(C)c4)C3)nc2c(=O)n1C (stereo not shown)', '< 75%'),
  ('Cc1nc2c(-c3ccc(Cl)cc3F)cc(N3C[C@@H](c4cnn(C)c4)OC(C)(C)C3)nc2c(=O)n1C (single isomer, unassigned) [Example 142A]', '< 75%'),
  ('Cn1cc([C@@H]2CN(c3nc(-c4ccc(F)cc4F)c4nc(C(F)(F)F)n(C)c(=O)c4n3)CC3(CC3)O2)cn1 (single isomer, unassigned) [Example 165A]', '75 to 110%');

Inquiry: Entry Cc1nc2c(C3CCC(C)CC3)nc(N3CCOC(c4cnn(C)c4)C3)nc2c(=O)n1C (single isomer, unassigned) [Example 71A] , system Human TREM2 (Homo sapiens): what Emax was measured?
Reply text: 75 to 110%

Inquiry: What about Cc1nc2c(-c3ccc(F)cc3C#N)nc(N3C[C@@H](C)O[C@@H](c4cnn(C5CC5)c4)C3)cc2c(=O)n1C (single isomer, unassigned) [Example 201B] ?
Reply text: < 75%

Inquiry: What about Cc1nc2c(-c3ccc(Cl)cc3C#N)nc(N3CC(C)OC(c4cnn(C5CC5)c4)C3)cc2c(=O)n1C (stereo not shown) ?
Reply text: < 75%

Inquiry: What about Cc1nc2c(-c3ccc(Cl)cc3F)nc(N3C[C@H](c4cnn(C)c4)OC4(CC4)C3)nc2c(=O)n1C (single isomer, unassigned) [Example 108B] ?
Reply text: < 75%

Inquiry: What about Cc1nc2c(-c3ccc(C(F)(F)F)cc3F)nc(N3CCO[C@H](c4cnn(C5CC5)c4)C3)nc2c(=O)n1C (single isomer, unassigned) [Example 20A] ?
Reply text: 75 to 110%

Inquiry: What about Cn1cc(C2CN(c3nc(-c4ccc(F)cc4F)c4nc(C(F)(F)F)n(C)c(=O)c4c3F)CC3(CC3)O2)cn1 (stereo not shown) ?
Reply text: < 75%

Inquiry: What about Cc1cc([C@H]2CN(c3nc(-c4ccc(C(F)(F)F)cc4F)c4nc(C)n(C)c(=O)c4n3)CC(C)(C)O2)ccn1 (single isomer, unassigned) [Example 124B] ?
Reply text: 75 to 110%

Inquiry: What about "Cc1nc2c(-c3ccc(Cl)cc3F)nc(N3CCC(Oc4cnn(C)c4)CC3)nc2c(=O)n1C" ?
Reply text: 75 to 110%
